- ASSAY DETAILS: yeast display, Sf9 membrane polyspecificity reagent, FACS + sequencing; frameworks hold sequencing errors
PROPERTY: polyreactivity (PSR sort gate)

Example sequences with recorded polyreactivity (PSR sort gate):
| ORDERED RESIDUES | polyreactivity (PSR sort gate) |
| --- | --- |
| QVQLVESGGGLVQAGGSLRLSCAASGIIFVRYTMGWYRQAPGKERELVAAISSSGGSTYYADSVKGRFTISRDNAKNTVYLQMNSLKPEDTAVYYCNAEIRDNNVGYYTDYDYWGQGTQVTVSS | high polyreactivity |
| QVQLVESGGGLVQAGGSLRLSCAASGSIFYPYAMGWYRQAPGKERELVAGISRSGASTYYADSVKGRFTISRDNAKNTVYLQMNSLKPEDTAVYYCAADDWTRNYWGQGTEVTVSS | low polyreactivity |
| QVQLVESGGGLVQAGGSLRISCAASGSIFRQYAMGLYRQAPGKEWELVAAITYSGGNTYYADSVKGRFTISRDNAKNTVYLQMNSLKPEDTAVYYCAADYGSRSWEYNYWGQGTQVTVSS | low polyreactivity |
| QVQHVESGGGLVQAGGSLRLSCAASGFIFLYYAMGWYRQAHGQERELVAAISRSGGRTYYADSVKGRFTISRDTAKNTVYLQMNSLKPEDTAVYYCAADRLGSISGYDYWGQGTQVTVSS | high polyreactivity |
| QVQLVESGGGLVQAGGSLRLSCAASGSIITPNAMGWYRQAPGQERELVAAISSGGSTNYADSVKGRITISRDNAKNTVYFQLTCLKPEDTAVYYCAKSIDGWYWRRRRYDYWGQGTQVTVSS | low polyreactivity |

Please go through the list and note polyreactivity (PSR sort gate) for each sequence.
1. QVHLVESGGGLVQAGGSLRLSCAASGLTFYGNAMGCYRQAPGKERELVAAISSSGGTTYYADSVKGRFTISRDNAKNTVYLQMNSLKPEDTAVYYCAARPSGGFESTRTRDYWGQGTQVTVSS
2. QVQLVESGGGLVQAGGSLRLSCAASGRTFRWNAMGWYRQAPGKERELVARISWRGGSTYYADSVKGRFTISRDNAKNTVYLQMNSLKPEDTAVYYCAATSPYYRTGYDYWGQGTQVTVSS
3. QVQLVESGGGLVQAGGSLRLSCAASGFTFPDYAMGWYRQAPGKERELVAAISSDCSTYYADSVKGRFTISRDNAKNTVYLQMNSLKPEDTAVYYCAAYVVWLYGYDYWGQGTQVTVSS

["low polyreactivity", "high polyreactivity", "low polyreactivity"]

Please go through the list and note polyreactivity (PSR sort gate) for each sequence.
1. QVQLVESGGGLVQAGGSLRLSCAASGSIFYLYAMGWYRQAPGKESELVAAITSGDSTTYADSVKWRFTISRDYAKNTVYLQMNSLKPEDTAVYYCAADWPGLVGYHNSAENDYWGQGTQVTVSS
2. QVQLVESGGGLVQAGGSLRLSCAASGFIFWSYAMGWYRQAPGKERELVAAIDLTGGSTYYADSVKGRFTISRDNAKNTVYLQMNSLKPEDTAVYYCNADGDTYAFTNSDSGFDYWGQGTQVSVSS
3. QVQLVESGGVLVQAGGSLRLSCAASGSTFGKNTMGWYRQAPGKERELVAAISRGVSTYYAYSVKGRFTISRDNATNTFYLQMNSLKPEDTALYYCAAQEAYRWYGFDFWGQGTQVTVLS
4. QVQLVESGGGLVQAGGRLRLSCAASGSTFGAYAMGWYRQAPGKERELVAAIRGSGAGTYYADSVKGRFTISRDNAKNTVYLQMNSLKPEDTAVYYCNTANLRSLGWTFRRYSYEYWGQGTQVTVSS
5. QVQLVESGGGLVQAGGSLRLSCAASGRTFTINAMGWYRQAPGKERELVATIRSSGGSTSYADSVKGRFTISRDNAKNTVYLQMNSLKPEDTAVYYCAADGWGRYDYWGQGTQVTVSS

1. low polyreactivity
2. low polyreactivity
3. high polyreactivity
4. high polyreactivity
5. low polyreactivity

Please go through the list and note polyreactivity (PSR sort gate) for each sequence.
1. QVQLVESGGGVVQAGGSLRLSCAASGRIIKSYAMGWYRQAPGKERDLVAAITRGGRTSYADSVKGRFTISRDNAKNTVYLQMNSLKPEDTAVYYCADDGGWRYHPFSSLFDYWGQGPQVTVSS
2. QVQLVESGGGLVQAGGSLRLSCAASGRIFTPYAMGWYRQAPVKERELVAVIRDGSTYYADSVKGRFTISRDNAKNTVDLLMNSLKPEDTAVYYCRYDIWVWWSGAYDYWGQGTQVTVSS
3. QVQLVESGGGLVQAGGSLRLSCAASGSTQKYAMGWYRQAPGKERELVAAIRRTGGSTYYADSVKGRFTISRDNAKNTVYLQMNSLKPEDTAVYYCAADPYNYYVSGYDYWGQVTQVTVSS
4. QVHLVESGGGLVQAGGSLRLSCSASGSIFRLNAMGWYRQAPGKERELVAAITWSDSSTYYADSVKGRFTISRDNAKNTVYLQMNSLKPVDTAVYYCAADPQSYKYDYWGQGTQVTVSS
5. QDQRVESGGGLVQAGGSLRLSCAASGSIRGYAMGWYRQAPGKERELVASITWSGGSTYYADSVKGRFTISRDNSKNTVYLQMNSLKPEDPAVFYCAARPSPYASFFRPYDYWGQGTQVTVSS
6. QVQLVESGGGLVQAGGSLSLSCAASGRTFVPYAMGWYRQAPGKERELVADITDGDGSTYADSVKGRFTISRDNAKNTVYLQMNSLKPEYTAVYYCAAQSRRLVTRWPVTFGYWGQGTQVTVSS

["low polyreactivity", "low polyreactivity", "low polyreactivity", "low polyreactivity", "low polyreactivity", "low polyreactivity"]

Please go through the list and note polyreactivity (PSR sort gate) for each sequence.
1. QVQLVESGGGLVQAGGSLRLSCAASGNTFYTYGMGWYRQAPGKERELVAAINHNGGSTYYADSVKARFTISRDNAKNTVYLQMNSLKPEDTAVYYCNADYSTYVERGSSVYYWYDYWGQGTQVTVSS
2. QVQLVESGGGLVQAGGSLRISCAASGRTFYDNTMGWYRQAPGKERELVAAINWSGTRTYYADSVKARFTISRDNAKNTVYLQMNSLKPEDTAVYYCAADGPFRRTYGYWGLGTQVTVSS

["low polyreactivity", "low polyreactivity"]

---

- ASSAY DETAILS: yeast display, Sf9 membrane polyspecificity reagent, FACS + sequencing; frameworks hold sequencing errors
PROPERTY: polyreactivity (PSR sort gate)

Example sequences with recorded polyreactivity (PSR sort gate):
| ORDERED RESIDUES | RECORDED VALUE |
| --- | --- |
| QVQLVESGGGLVQAGGSLRLSCAASGSLFYPYAMGWYRQAPGKERELVAAIDLSGGSTYYADAVKGRFTISRDNAKNTVYLQMNSLKPEDTAVYYCAADYGYTYAYDYWGQGTQVTVSS | low polyreactivity |
| QVQLQESGGGLVQAGGSLRLSCAASGYISHADEMGWYRQAPGKEHELVASISNGGSTNYADSVKARCTISRDNAKTTVYLQMNSLKSEATAVYFCAAWTGQVDIHYYWGQGTQVTVSS | low polyreactivity |
| QVQLVESGGGLVQAGGSLRLSCAASGSIFAYNAMGWYRQAPGKEREFVAVITRSDDSTYADSVKGRFTISRDNAKNSVYLQMNSLKPEDTAVYYCAAQPFVIDGGYRGDYWGQGTQVTVSS | low polyreactivity |
| QVQLVESGGGLVQAGGSLRLSSAASGFTFSQYAMGWYRQAPGKERELVAAISVSGGTTYYADSVKGRFTISRDNAKNTVYLQMNSLKPEDTAVYYCAARTPYSRSPYVNTSGYYYWGQGTQVTVSS | high polyreactivity |

Please go through the list and note polyreactivity (PSR sort gate) for each sequence.
1. QVQLVESGGGLVQAGGSLRLSCAASGRIFSSYAMGWYRKAPGKERELVAAISGSGGRTYYADSVKGRFTISRDNAKNTVYLQMNSLKPEDTAVYYCNARRRSPYSTGVAYDYWGQVTQVTVSS
2. QVQHVESGGGLVQAGGSLRLSCAASGYTFRSNTMGWYRQAPGKERELVAAISGRGSSTYYADSVKGRFTISRDNAKNTVYLQMNSLKPEDTAVYYCAAQSKYYQYYSWGQGTQVTVSS

["high polyreactivity", "high polyreactivity"]

Please go through the list and note polyreactivity (PSR sort gate) for each sequence.
1. QVQLVESGGGLVQAGGSLRLSCAASGRTFYNAMGWYRQAPGKERELVAAITTGGGTKYADSVKGRFTISRDNAKNTVYLQMNSLKPEDTAVYYCNAYRQYRYDYWGQGTQVTVSS
2. QVQLVESGGGLVQAGGSLRLSCAASGSTFLITALGWYRQAPGKEREFVADISSSDGSTYYADSVKGRFTISRDNAKNTVYLQMNSLKPEDTAVYYCAAAHVEGSYHKYYYWGQGTQVTVSS
3. QVQLVESGGGIVQAGGSLRLSCAASGSILYPYAMGWYRQAPGKERELVAAISRGGSTNYADSVKGRFTISRDNAKNTVYLQMNSLKPEDTAVYYCATAYTRFSQRYEYYVIYWQNDYWGQGTQVTVSS
4. QVQLVETGGGLVHAGGSLRLSCAASGSIFGLYAMGWYRQAPGKERELVAAITVSGGSTYYADSVKGRFTISRDNAKNTVYLQLNSLKPEDTAVYYCAARAGWPLYQYYYWGQGTQVTVSS
5. QVQLVESGGGLVQAGGSLSLSCAASGSILYFNAMGWYRQAPGKERELVAAISRSGGSTYYADSVKGRFTISRDNAKNTVYIQMNSLKPEDTAVYSCAASYTVYYWGQGTQVTVTS

1. low polyreactivity
2. high polyreactivity
3. low polyreactivity
4. high polyreactivity
5. high polyreactivity
